Kindly supply the reported ED50 values for the records listed here.
# System: Rattus norvegicus
# Experiment Summary: Anticonvulsant activity in po dosed Sprague-Dawley albino rat assessed as protection against maximal electroshock-induced seizures
# Assay type: functional
Answers are plain numbers, in mg/kg.

Field: example entries. Status: answers known.
Task item: Give the measured ED50 of NC(=O)OCCc1ccccc1 [PHENYLETHYL CARBAMATE] .
Reply: 16

Task item: Give the measured ED50 of CCC(COC(N)=O)C(C)C (racemic) .
Reply: 64

Task item: Give the measured ED50 of `CCCC(CCC)COC(N)=O` .
Reply: 35

# per-item lookup of ED50; items listed below
1. CCC(C)C(CC)COC(N)=O (racemic)
2. NC(=O)OC[C@@H](O)c1ccccc1Cl [CARISBAMATE]
3. NC(=O)OCC(COC(N)=O)c1ccccc1 [FELBAMATE]

Reply:
[52, 8, 25]

====

# System: Rattus norvegicus
# Experiment Summary: Neurotoxicity in pilocarpine-induced status epilepticus Sprague-Dawley albino rat model assessed as minimal motor impairment at 300 mg/kg, ip after 4 hrs by rotarod test
# Assay type: toxicity, organism-based
# Set-up: dose 300 mg/kg, route intraperitoneal
# Condition Description: in vivo
Value Kind: Activity

Task item: Which measured Activity belongs to CC(COC(N)=O)CC(C)(C)C (racemic) , tested on Rattus norvegicus?
Reply: Non-toxic

Task item: Which measured Activity belongs to `CCC(CC)COC(N)=O` , tested on Rattus norvegicus?
Reply: Non-toxic

Task item: Which measured Activity belongs to CCCC(COC(N)=O)C(C)CC (racemic) , tested on Rattus norvegicus?
Reply: Non-toxic

Task item: Which measured Activity belongs to `CC1(C)C(COC(N)=O)C1(C)C` , tested on Rattus norvegicus?
Reply: Non-toxic

Task item: Which measured Activity belongs to CCCC(COC(N)=O)C(C)C (racemic) , tested on Rattus norvegicus?
Reply: Toxic

# per-item lookup of Activity; items listed below
1. CCC(C)CCOC(N)=O (racemic)
2. CCC(C)C(CC)COC(N)=O (racemic)
3. CCCC(CCC)COC(N)=O
4. CC(C)(C)CCOC(N)=O
5. CCCCC(CC)COC(N)=O (racemic)

Reply:
["Non-toxic", "Non-toxic", "Toxic", "Non-toxic", "Toxic"]

# per-item lookup of Activity; items listed below
1. CCCC(CCC)COC(=O)NC
2. CC(C)C(C)COC(N)=O (racemic)
3. CCC(COC(N)=O)CC(C)C (racemic)

Reply:
1. Toxic
2. Non-toxic
3. Non-toxic

====

# Tested on: Rattus norvegicus
# Experiment Summary: Protective index, ratio of TD50 for po dosed Sprague-Dawley albino rat by rotarod test to ED50 for po dosed Sprague-Dawley albino rat by subcutaneous metrazol seizures test
# Format: functional
Value Kind: Ratio TD50/ED50

Field: example entries. Status: answers known.
Task item: Which measured Ratio TD50/ED50 belongs to CCC(C)C(CC)COC(N)=O (racemic) , tested on Rattus norvegicus?
Reply: 4.3

Task item: Which measured Ratio TD50/ED50 belongs to NC(=O)OCC(COC(N)=O)c1ccccc1 [FELBAMATE] , tested on Rattus norvegicus?
Reply: >2

Task item: Which measured Ratio TD50/ED50 belongs to `CCCC(CCC)COC(N)=O` , tested on Rattus norvegicus?
Reply: >4

# per-item lookup of Ratio TD50/ED50; items listed below
1. CCC(COC(N)=O)C(C)C (racemic)
2. NC(=O)OC[C@@H](O)c1ccccc1Cl [CARISBAMATE]

Reply:
1. 14
2. 2.4

====

# Test system: Rattus norvegicus
# Experiment Summary: Anticonvulsant activity in po dosed Sprague-Dawley albino rat assessed as protection against subcutaneous metrazol-induced seizures
# Format: functional
Value Kind: ED50

Field: example entries. Status: answers known.
Task item: Give the measured ED50 of `CCCC(CCC)C(=O)O` .
Reply: 646 mg/kg

Task item: Give the measured ED50 of CCC(C)C(CC)COC(N)=O (racemic) .
Reply: 68 mg/kg

Task item: Give the measured ED50 of CCC(COC(N)=O)C(C)C (racemic) .
Reply: 35 mg/kg

Task item: Give the measured ED50 of NC(=O)OC[C@@H](O)c1ccccc1Cl [CARISBAMATE] .
Reply: 58 mg/kg

Task item: Give the measured ED50 of NC(=O)OCC(COC(N)=O)c1ccccc1 [FELBAMATE] .
Reply: > 250 mg/kg

More entries:
Task item: Give the measured ED50 of `CCCC(CCC)COC(N)=O` .
Reply: > 125 mg/kg

====

# Test system: Rattus norvegicus
# Experiment Summary: Neurotoxicity in pilocarpine-induced status epilepticus Sprague-Dawley albino rat model assessed as minimal motor impairment at 30 mg/kg, ip after 2 hrs by rotarod test
# Format: toxicity, organism-based
# Parameters: dose 30 mg/kg, route intraperitoneal
# Condition Description: in vivo
Value Kind: Activity

Field: example entries. Status: answers known.
Task item: Give the measured Activity of CCC(C)C(CC)COC(N)=O (racemic) .
Reply: Toxic

Task item: Give the measured Activity of `CC1(C)C(COC(N)=O)C1(C)C` .
Reply: Non-toxic

Task item: Give the measured Activity of `CC(C)C(COC(N)=O)C(C)C` .
Reply: Non-toxic

Task item: Give the measured Activity of CCC(COC(N)=O)C(C)C (racemic) .
Reply: Non-toxic

# per-item lookup of Activity; items listed below
1. CCC(COC(N)=O)CC(C)C (racemic)
2. CCCC(COC(N)=O)C(C)C (racemic)
3. CC(COC(N)=O)CC(C)(C)C (racemic)
4. CCC(C)CCOC(N)=O (racemic)
5. CCC(C)C(COC(N)=O)C(C)C (racemic)
6. CCCC(COC(N)=O)C(C)CC (racemic)
7. CCCC(CCC)COC(=O)NC

Reply:
1: Non-toxic; 2: Non-toxic; 3: Non-toxic; 4: Non-toxic; 5: Non-toxic; 6: Toxic; 7: Non-toxic

====

# System: Rattus norvegicus
# Experiment Summary: Neurotoxicity in pilocarpine-induced status epilepticus Sprague-Dawley albino rat model assessed as minimal motor impairment at 300 mg/kg, ip after 2 hrs by rotarod test
# Type: toxicity, organism-based
# Parameters: dose 300 mg/kg, route intraperitoneal
# Condition Description: in vivo
Value Kind: Activity

Field: example entries. Status: answers known.
Task item: Give the measured Activity of CCCC(COC(N)=O)C(C)C (racemic) .
Reply: Toxic

Task item: Give the measured Activity of `CC(C)(C)COC(N)=O` .
Reply: Toxic

Task item: Give the measured Activity of CCC(C)CCOC(N)=O (racemic) .
Reply: Non-toxic

Task item: Give the measured Activity of CC(C)C(C)COC(N)=O (racemic) .
Reply: Non-toxic

# per-item lookup of Activity; items listed below
1. CC(COC(N)=O)CC(C)(C)C (racemic)
2. CCC(C)C(CC)COC(N)=O (racemic)
3. CCCC(COC(N)=O)C(C)CC (racemic)
4. CCCC(CCC)COC(=O)NC
5. CCC(CC)COC(N)=O
6. CCCC(CCC)COC(N)=O

Reply:
["Toxic", "Non-toxic", "Non-toxic", "Toxic", "Non-toxic", "Toxic"]

# per-item lookup of Activity; items listed below
1. CC(C)(C)CCOC(N)=O
2. CC1(C)C(COC(N)=O)C1(C)C
3. CCCCC(CC)COC(N)=O (racemic)

Reply:
1. Non-toxic
2. Toxic
3. Toxic

====

# System: Rattus norvegicus
# Experiment Summary: Neurotoxicity in pilocarpine-induced status epilepticus Sprague-Dawley albino rat model assessed as minimal motor impairment at 100 mg/kg, ip after 1 hr by rotarod test
# Format: toxicity, organism-based
# Set-up: dose 100 mg/kg, route intraperitoneal
# Condition Description: in vivo
Value Kind: Activity

Task item: Give the measured Activity of CCC(C)CCOC(N)=O (racemic) .
Reply: Non-toxic

Task item: Give the measured Activity of `CC1(C)C(COC(N)=O)C1(C)C` .
Reply: Toxic

Task item: Give the measured Activity of CCC(COC(N)=O)C(C)C (racemic) .
Reply: Non-toxic

Task item: Give the measured Activity of `CCCC(CCC)COC(N)=O` .
Reply: Non-toxic

Task item: Give the measured Activity of `CC(C)(C)CCOC(N)=O` .
Reply: Non-toxic

# per-item lookup of Activity; items listed below
1. CC(C)(C)COC(N)=O
2. CC(C)C(COC(N)=O)C(C)C

Reply:
1. Non-toxic
2. Non-toxic

# per-item lookup of Activity; items listed below
1. CCC(CC)COC(N)=O
2. CCCC(COC(N)=O)C(C)C (racemic)
3. CCCC(CCC)COC(=O)NC
4. CC(C)C(C)COC(N)=O (racemic)
5. CCCCC(CC)COC(N)=O (racemic)

Reply:
1: Non-toxic; 2: Toxic; 3: Toxic; 4: Non-toxic; 5: Non-toxic
